Recorded values, source patent US20240269106A1.

Assay: Pharmacokinetic study, oral, serum LC-MS
Assay type: in vivo, SD rats
Conditions: male, Sprague-Dawley (SD), rat, serum; free drug coarse suspension, 100 mg/kg oral; read-out: t½ (converted)
PROPERTY LABEL: half-life (h)

{"TEST SMILES": "COc1ccc(C(=O)C2=C3OC(C)(C)[C@@H](CC=C(C)C)C[C@@]34C[C@@H](CC=C(C)C)C(C)(C)[C@@](CC=C(C)C)(C2=O)C4=O)cc1OC", "PROPERTY LABEL": "half-life", "UNIT INFO": "h", "MEAS VALUE": 13.8}
